Values of pIC50 for Mast/stem cell growth factor receptor Kit (Homo sapiens, UniProt P10721), collected from a number of published sources:
pIC50: −log10 of the molar value.
measured_quantity: pIC50

- CCCCS(=O)(=O)Nc1ccc(F)c(C(=O)c2c[nH]c3ncc(-c4ccc(F)cc4)cc23)c1F: ≥ 5.00
- COc1ccc(F)c(C(=O)c2c[nH]c3ncc(-c4ccncc4)cc23)c1F: ≥ 5.00
- N#Cc1cnc2[nH]cc(C(=O)c3c(F)ccc(NS(=O)(=O)c4c(F)cccc4F)c3F)c2c1: ≥ 5.00
- O=C(Nc1n[nH]c2c1CCn1cc(C(=O)N3CCC(N4CCCCC4)CC3)cc1-2)c1ccccc1Cl: 5.38
- CC(=O)Nc1cccc(-c2cnc3[nH]cc(C(=O)c4cccc(C(F)(F)F)c4)c3c2)c1: ≥ 5.00
- COc1cc(OC)cc(C(O)c2c[nH]c3ncc(Br)cc23)c1 (stereo not shown): ≥ 5.00
- O=C(NCc1cccc(-c2cccnc2F)c1)Nc1ccc(Cl)c(C(F)(F)F)c1: 5.30 to 6.30
- O=C(c1cc(Cl)ccc1F)c1c[nH]c2ncc(-c3cccs3)cc12: ≥ 5.00
- O=C(c1cccc(O)c1)c1c[nH]c2nccc(Cl)c12: ≥ 5.00
- Cn1cc(-c2cnc3[nH]cc(C(=O)c4cccc(NS(=O)(=O)c5ccc(OC(F)(F)F)cc5)c4)c3c2)cn1: ≥ 5.00
- Cc1ccc(C(=O)Nc2n[nH]c3c2CCn2cc(C(=O)N4CCCC4)cc2-3)c(C)c1: 5.45
- [2H]C1([2H])C([2H])([2H])C2(COc3ccc(F)c(-c4cn([C@H]5C[C@@H](N6CCN(C(C)=O)CC6)C5)c5ncnc(N)c45)c3)OC1([2H])C([2H])([2H])C2([2H])[2H]: < 5.00
- CNc1ncnc2[nH]cc(C(=O)c3ccc(Nc4ccc(OC)nc4)nc3F)c12: > 7.00
- O=C(c1cccc(OCc2ccc(Cl)cc2F)c1OCC(F)(F)F)c1c[nH]c2ncccc12: ≥ 5.00
- CCCC(=O)Nc1ccc(F)c(Cc2c[nH]c3ncc(OC)cc23)c1F: ≥ 5.00
- CCCc1ccc(S(=O)(=O)Nc2ccc(F)c(C(=O)c3c[nH]c4ncc(-c5ncc(C)n5C)cc34)c2F)cc1: ≥ 5.00
- Cc1cnc2[nH]cc(C(=O)c3c(F)ccc(NS(=O)(=O)c4c(F)cccc4F)c3F)c2c1: ≥ 5.00
- CCN1CCCn2c1ncc(-c1ccc(Oc3ccnc(-c4cnn(C)c4)c3)c(C)n1)c2=O: 7.69
- COc1ccc(-c2n[nH]c3nc(-c4cccc(NC(C)=O)c4)ccc23)cc1: ~7.02
